Let's look at some compounds and their measured melting point.
recorded.metric: melting point

>>> df
                                   compound       reported
0  CNc1nc(-c2cccc(/C=C/c3ccccc3)c2)c2cc(OC)c(OC)cc2n1 [Example 69]  110 to 112 °C
1  CNc1nc(-c2cccc(NC(=O)c3ccccc3Cl)c2)c2cc(OC)c(OC)cc2n1 [Example 8]  197 to 199 °C
2  CNc1nc(-c2cccc(-c3cncc(SC)c3)c2)c2cc(OC)c(OC)cc2n1 [Example 58]  184 to 186 °C
3  CNc1nc(-c2cccc(NC(=O)c3ccccc3)c2)c2cc(OCc3ccccc3)c(OC)cc2n1 [Example 81]  204 to 206 °C
4  CNc1nc(-c2cccc(OCc3ccccc3)c2)c2cc(OC)c(OC)cc2n1 [Example 72]  116 to 118 °C
5  CNc1nc(-c2cncc(C#Cc3cccnc3)c2)c2cc(OC)c(OC)cc2n1 [Example 78]  208 to 211 °C
6  CNc1nc(-c2cccc(NC(=O)c3ccc4c(c3)OCO4)c2)c2cc(OC)c(OC)cc2n1 [Example 5]  205 to 207 °C
7  CNc1nc(-c2cccc(NC(=O)c3ccc(SC)cc3)c2)c2cc(OC)c(OC)cc2n1 [Example 26]  209 to 211 °C

Data provenance is patent US6352989B1.
